Overview of recorded Remaining activity [%] for various binders
- system_name: VLP2 (virus-like particles, capsid protein particles of AAV serotype 2) (AAV serotype 2 (AAV2)) (UniProt P03135)
- Sequence (P03135 whole entry): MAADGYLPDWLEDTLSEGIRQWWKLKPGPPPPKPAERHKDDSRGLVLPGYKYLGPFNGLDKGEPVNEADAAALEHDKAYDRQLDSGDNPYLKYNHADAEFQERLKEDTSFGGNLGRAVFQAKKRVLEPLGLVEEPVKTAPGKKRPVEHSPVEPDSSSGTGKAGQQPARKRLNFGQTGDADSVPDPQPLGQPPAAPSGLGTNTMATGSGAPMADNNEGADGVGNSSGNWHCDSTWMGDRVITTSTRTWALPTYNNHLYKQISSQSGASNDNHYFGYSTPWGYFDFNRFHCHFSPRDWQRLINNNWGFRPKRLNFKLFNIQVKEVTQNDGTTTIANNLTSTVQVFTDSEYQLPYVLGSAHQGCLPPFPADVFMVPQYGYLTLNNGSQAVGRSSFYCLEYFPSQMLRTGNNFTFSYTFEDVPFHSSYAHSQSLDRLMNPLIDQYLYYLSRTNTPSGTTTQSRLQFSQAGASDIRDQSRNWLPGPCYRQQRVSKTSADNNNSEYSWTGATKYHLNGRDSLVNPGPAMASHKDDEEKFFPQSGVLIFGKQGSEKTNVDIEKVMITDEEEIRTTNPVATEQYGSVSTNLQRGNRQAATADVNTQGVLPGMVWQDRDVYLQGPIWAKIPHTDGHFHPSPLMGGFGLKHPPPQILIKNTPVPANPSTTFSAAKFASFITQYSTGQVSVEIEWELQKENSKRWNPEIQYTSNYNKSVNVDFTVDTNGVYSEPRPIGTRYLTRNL
- test_summary: ELISA on immobilised VLP2 (culture supernatant, anti-His detection); A450 after 1:1 0.5 M NaOH, 30 min, 30°C divided by A450 untreated
State just the number; it will be interpreted in %.

Prompt: Annotate the binder AVR21 with Y344F, T350A, Y377N (receptor) MGSAGESDQITLPKHEAQLNVYVLLVPPKGEASTFDWQLIAHPRDYSGEMEGEHSQILKLSNLTPGLNEYRAVVEGQNAHSEGYVNVTVEPEPRKNRPPIAIVSPQFQEISLPTTSTVIDGSQSTDDDKIVQYHWEELKGPLREEKISEDTAILKLSQLVPGNYTFRLTVVDTDGATDSTTADLTVNKAVDHHHHHH with its measured Remaining activity [%].
Response: 34.4

Further cases:
Prompt: Report Remaining activity [%], nothing else, for this binder: AVR21 with L321Q, T343S (receptor) MGSAGESDQITQPKHEAQLNVYVLLVPPKGEASSYDWQLITHPRDYSGEMEGEHSQILKLSNLTPGLYEYRAVVEGQNAHSEGYVNVTVEPEPRKNRPPIAIVSPQFQEISLPTTSTVIDGSQSTDDDKIVQYHWEELKGPLREEKISEDTAILKLSQLVPGNYTFRLTVVDTDGATDSTTADLTVNKAVDHHHHHH
Response: 50.4
